- STATED CONDITIONS: human gut metagenome, 24 h, 2 µM; further: call rule not given here

COMPOUND: CN1CCc2cccc3c2[C@H]1Cc1ccc(O)c(O)c1-3
Bacterial Biotransformation: Compound NOT metabolized
--
COMPOUND: CCCCc1nc(Cl)c(CO)n1Cc1ccc(-c2ccccc2-c2nn[nH]n2)cc1
Bacterial Biotransformation: Compound NOT metabolized
--
COMPOUND: CS(=O)(=O)O.O.O.O.O=C1Cc2cc(CCN3CCN(c4nsc5ccccc45)CC3)c(Cl)cc2N1 [ZIPRASIDONE MESYLATE]
Bacterial Biotransformation: Compound NOT metabolized
--
COMPOUND: CC(C)c1nc(CN(C)C(=O)N[C@H](C(=O)N[C@@H](Cc2ccccc2)C[C@H](O)[C@H](Cc2ccccc2)NC(=O)OCc2cncs2)C(C)C)cs1
Bacterial Biotransformation: Compound metabolized
--
COMPOUND: Cc1nc2n(c(=O)c1CCN1CCC(c3noc4cc(F)ccc34)CC1)CCCC2
Bacterial Biotransformation: Compound metabolized
--
COMPOUND: CS(=O)(=O)O.OC(CCN1CCCCC1)(c1ccccc1)c1ccccc1 [PRIDINOL METHANESULFONATE]
Bacterial Biotransformation: Compound NOT metabolized
--
COMPOUND: COc1c2occc2cc2ccc(=O)oc12
Bacterial Biotransformation: Compound metabolized
--
COMPOUND: CCc1nc(N)nc(N)c1-c1ccc(Cl)cc1
Bacterial Biotransformation: Compound NOT metabolized
--
COMPOUND: C=CCN1CC[C@]23c4c5ccc(O)c4O[C@H]2C(=O)CC[C@@]3(O)[C@H]1C5
Bacterial Biotransformation: Compound NOT metabolized
--
COMPOUND: O=C(CCCN1CCC(O)(c2ccc(Cl)cc2)CC1)c1ccc(F)cc1
Bacterial Biotransformation: Compound NOT metabolized
--
COMPOUND: CC(CN(C)C)CN1c2ccccc2CCc2ccccc21.O=C(O)/C=C\C(=O)O (stereo unspecified) [TRIMIPRAMINE MALEATE]
Bacterial Biotransformation: Compound NOT metabolized
--
COMPOUND: CCc1nn(CCCN2CCN(c3cccc(Cl)c3)CC2)c(=O)n1CCOc1ccccc1
Bacterial Biotransformation: Compound metabolized
--
COMPOUND: CCCc1nc(C(C)(C)O)c(C(=O)OCc2oc(=O)oc2C)n1Cc1ccc(-c2ccccc2-c2nnn[nH]2)cc1
Bacterial Biotransformation: Compound metabolized
--
COMPOUND: CNS(=O)(=O)Cc1ccc2[nH]cc(CCN(C)C)c2c1.O=C(O)CCC(=O)O [SUMATRIPTAN SUCCINATE]
Bacterial Biotransformation: Compound NOT metabolized
--
COMPOUND: CCN(CC)CCOCCOC(=O)C1(c2ccccc2)CCCC1.O=C(O)CC(O)(CC(=O)O)C(=O)O [CARBETAPENTANE CITRATE]
Bacterial Biotransformation: Compound metabolized
--
COMPOUND: O=c1[nH]c2ccccc2n1CCCN1CCC(n2c(=O)[nH]c3cc(Cl)ccc32)CC1
Bacterial Biotransformation: Compound NOT metabolized

* * *

- STATED CONDITIONS: human gut metagenome, 24 h, 2 µM

MOLECULE: O=C(NCc1ccccc1)OCCO [BURAMATE]
Bacterial Biotransformation: Compound NOT metabolized
--
MOLECULE: O=c1n(CCCN2CCN(c3cccc(Cl)c3)CC2)nc2ccccn12
Bacterial Biotransformation: Compound metabolized
--
MOLECULE: CCN(CC)CCNC(C(=O)OCCC(C)C)c1ccccc1.Cl.Cl (stereo not given)
Bacterial Biotransformation: Compound metabolized
--
MOLECULE: CS(=O)(=O)O.OC(CCN1CCCCC1)(c1ccccc1)c1ccccc1 [PRIDINOL METHANESULFONATE]
Bacterial Biotransformation: Compound metabolized
--
MOLECULE: CCC(=O)NCC[C@@H]1CCc2ccc3c(c21)CCO3
Bacterial Biotransformation: Compound metabolized
--
MOLECULE: OC(Cn1cncn1)(Cn1cncn1)c1ccc(F)cc1F
Bacterial Biotransformation: Compound metabolized
--
MOLECULE: CC(C)NCC(O)COc1ccc(CCOCC2CC2)cc1 (stereo not given)
Bacterial Biotransformation: Compound metabolized
--
MOLECULE: CCN(CC)CCNC(=O)c1cc(Cl)c(N)cc1OC [METOCLOPRAMIDE]
Bacterial Biotransformation: Compound NOT metabolized
--
MOLECULE: COCCc1ccc(OCC(O)CNC(C)C)cc1.COCCc1ccc(OCC(O)CNC(C)C)cc1.O=C(O)C(O)C(O)C(=O)O (stereo not given) [METOPROLOL TARTRATE]
Bacterial Biotransformation: Compound metabolized
--
MOLECULE: N#Cc1ccc(C(c2ccc(C#N)cc2)n2cncn2)cc1
Bacterial Biotransformation: Compound NOT metabolized

* * *

- ASSAY COMMENT: The drug is tested on Z-003 corresponding to pig gut metagenome with ENA study accession number: PRJEB37062 and ENA sample accession number: ERS12561803 for biotransformation under anaerobic condition. The drug concentrations were measured over 9 timepoints collected between 0 and 24 hours of incubation by liquid-chromatography-coupled mass spectrometry (LC–MS)
- STATED CONDITIONS: 2 µM

MOLECULE: CCOc1ccc(NC(C)=O)cc1 [PHENACETIN]
Bacterial Biotransformation: Compound NOT metabolized

MOLECULE: CC(C)N(CCC(C(N)=O)(c1ccccc1)c1ccccn1)C(C)C.O=P(O)(O)O (stereo not drawn) [DISOPYRAMIDE PHOSPHATE]
Bacterial Biotransformation: Compound NOT metabolized

MOLECULE: Cc1ccc(-c2nc3ccc(C)cn3c2CC(=O)N(C)C)cc1 [ZOLPIDEM]
Bacterial Biotransformation: Compound metabolized

MOLECULE: COc1ccc2[nH]c([S+]([O-])Cc3ncc(C)c(OC)c3C)nc2c1 (stereo not drawn) [OMEPRAZOLE]
Bacterial Biotransformation: Compound NOT metabolized

MOLECULE: CN1CC(=O)N2[C@H](c3ccc4c(c3)OCO4)c3[nH]c4ccccc4c3C[C@@H]2C1=O
Bacterial Biotransformation: Compound metabolized

MOLECULE: CC(=O)OCC(=O)[C@@]1(O)[C@@H](C)C[C@H]2[C@@H]3CCC4=CC(=O)C=C[C@]4(C)[C@@]3(F)[C@@H](O)C[C@@]21C [BETAMETHASONE ACETATE]
Bacterial Biotransformation: Compound metabolized

MOLECULE: CNC(=C[N+](=O)[O-])NCCSCc1csc(CN(C)C)n1 [NIZATIDINE]
Bacterial Biotransformation: Compound NOT metabolized

MOLECULE: CCN(CC)CCNC(C(=O)OCCC(C)C)c1ccccc1.Cl.Cl (stereo not drawn)
Bacterial Biotransformation: Compound metabolized

MOLECULE: CN(C)CC(c1ccc(O)cc1)C1(O)CCCCC1.O=C(O)CCC(=O)O (stereo not drawn) [DESVENLAFAXINE SUCCINATE]
Bacterial Biotransformation: Compound NOT metabolized

MOLECULE: CCN(CC)CC#CCOC(=O)C(O)(c1ccccc1)C1CCCCC1.Cl (stereo not drawn) [OXYBUTYNIN CHLORIDE]
Bacterial Biotransformation: Compound metabolized

MOLECULE: OC(CCN1CCCCC1)(c1ccccc1)C1CCCCC1 (stereo not drawn) [TRIHEXYPHENIDYL]
Bacterial Biotransformation: Compound metabolized

MOLECULE: CCc1nc(N)nc(N)c1-c1ccc(Cl)cc1 [PYRIMETHAMINE]
Bacterial Biotransformation: Compound NOT metabolized

MOLECULE: CC(C)NCC(O)COc1ccc(CCOCC2CC2)cc1 (stereo not drawn) [BETAXOLOL]
Bacterial Biotransformation: Compound NOT metabolized

MOLECULE: O=C(O)COCCN1CCN(C(c2ccccc2)c2ccc(Cl)cc2)CC1 (stereo not drawn) [CETIRIZINE]
Bacterial Biotransformation: Compound metabolized

MOLECULE: Clc1ccc(Cn2c(CN3CCCC3)nc3ccccc32)cc1 [CLEMIZOLE]
Bacterial Biotransformation: Compound metabolized

MOLECULE: CN1C(=O)CC(C)(c2ccccc2)C1=O (stereo not drawn) [METHSUXIMIDE]
Bacterial Biotransformation: Compound NOT metabolized

MOLECULE: CCCCC1=NC2(CCCC2)C(=O)N1Cc1ccc(-c2ccccc2-c2nnn[nH]2)cc1 [IRBESARTAN]
Bacterial Biotransformation: Compound metabolized

MOLECULE: CC(O)(CS(=O)(=O)c1ccc(F)cc1)C(=O)Nc1ccc(C#N)c(C(F)(F)F)c1 (stereo not drawn) [BICALUTAMIDE]
Bacterial Biotransformation: Compound NOT metabolized

* * *

- ASSAY COMMENT: The drug is tested on Z-025 corresponding to rabbit gut metagenome with ENA study accession number: PRJEB37062 and ENA sample accession number: ERS12561824 for biotransformation under anaerobic condition. The drug concentrations were measured over 9 timepoints collected between 0 and 24 hours of incubation by liquid-chromatography-coupled mass spectrometry (LC–MS)
- STATED CONDITIONS: 2 µM
TEST READOUT: Bacterial Biotransformation

COMPOUND: CC(C)c1nc(CN(C)C(=O)N[C@H](C(=O)N[C@@H](Cc2ccccc2)C[C@H](O)[C@H](Cc2ccccc2)NC(=O)OCc2cncs2)C(C)C)cs1 [RITONAVIR]
RESULT: Compound metabolized
--
COMPOUND: CC(C(=O)O)c1ccc2c(c1)Cc1cccnc1O2 (centres undefined) [PRANOPROFEN]
RESULT: Compound metabolized
--
COMPOUND: CCCc1nc2c(C)cc(-c3nc4ccccc4n3C)cc2n1Cc1ccc(-c2ccccc2C(=O)O)cc1
RESULT: Compound metabolized
